- testedSystem: T1, secretory phospholipase A2 (sPLA2) (Homo sapiens, UniProt P14555 P14555:21-144)
- T1 sequence: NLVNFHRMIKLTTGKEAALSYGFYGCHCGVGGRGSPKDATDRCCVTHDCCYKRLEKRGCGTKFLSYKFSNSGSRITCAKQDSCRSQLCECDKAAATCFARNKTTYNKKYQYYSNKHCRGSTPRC
- protocolNotes: filter; biphasic, Kd2 82 nM, mole fraction 0.50; TBSC, 37 C
- testParameters: tags: supplied by Eli Lilly
readoutLabel: pKd
Notebook: values listed as pKd are -log10 of the concentration (mol/L).

INPUT: For the binder 93 (ssRNA) RNA: GGGAGCUCAGAAUAAACGCUCAACAGCCAAUGUGUCCCGUACGGCGUAUCCUAUUCGACAUGAGGCCCGGAUCCGGC , give its reported pKd.
OUTPUT: 7.76
